Each recorded value in this set is attributed to ChEMBL document CHEMBL1156131.

pIC50 overview
# target.or.system: UniProt:O60674
# Sequence (O60674 whole entry): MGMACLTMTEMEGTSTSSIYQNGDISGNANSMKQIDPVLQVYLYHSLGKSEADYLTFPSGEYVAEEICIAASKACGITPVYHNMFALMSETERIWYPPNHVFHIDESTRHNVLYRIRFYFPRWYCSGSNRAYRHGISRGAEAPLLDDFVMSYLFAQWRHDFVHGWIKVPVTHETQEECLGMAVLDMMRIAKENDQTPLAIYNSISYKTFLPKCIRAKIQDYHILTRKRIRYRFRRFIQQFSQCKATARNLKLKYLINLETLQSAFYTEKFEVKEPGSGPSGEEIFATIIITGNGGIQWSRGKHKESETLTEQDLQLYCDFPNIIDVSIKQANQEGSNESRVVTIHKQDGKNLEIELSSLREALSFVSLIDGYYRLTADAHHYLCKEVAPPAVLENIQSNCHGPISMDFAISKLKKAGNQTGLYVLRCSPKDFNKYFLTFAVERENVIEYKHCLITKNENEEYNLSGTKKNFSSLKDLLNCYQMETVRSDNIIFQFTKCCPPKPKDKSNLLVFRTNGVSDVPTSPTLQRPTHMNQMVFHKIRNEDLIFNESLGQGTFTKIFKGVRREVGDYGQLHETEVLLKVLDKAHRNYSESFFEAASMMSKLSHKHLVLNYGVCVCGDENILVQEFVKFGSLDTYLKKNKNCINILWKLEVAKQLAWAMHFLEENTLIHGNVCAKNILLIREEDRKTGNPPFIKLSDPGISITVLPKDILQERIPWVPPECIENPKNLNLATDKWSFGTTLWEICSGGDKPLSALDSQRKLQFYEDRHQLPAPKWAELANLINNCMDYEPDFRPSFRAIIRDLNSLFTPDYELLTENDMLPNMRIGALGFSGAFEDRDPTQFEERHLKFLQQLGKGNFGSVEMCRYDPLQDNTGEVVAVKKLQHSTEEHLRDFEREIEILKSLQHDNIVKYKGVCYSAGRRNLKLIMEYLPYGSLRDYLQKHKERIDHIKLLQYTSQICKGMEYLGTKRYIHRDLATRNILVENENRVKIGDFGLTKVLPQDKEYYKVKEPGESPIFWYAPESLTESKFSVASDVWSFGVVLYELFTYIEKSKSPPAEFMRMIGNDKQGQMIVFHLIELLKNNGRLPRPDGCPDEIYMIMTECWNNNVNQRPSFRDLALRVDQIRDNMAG
# protocol.notes: Inhibition of JAK2 using 2 mM ATP as a substrate
pIC50: −log10 of the molar value.

compound | pIC50
Cc1cc(Nc2nc(N[C@@H](C)c3ccc(F)cn3)cnc2C)[nH]n1 | > 8.52
Cc1cc(Nc2cncc(N[C@@H](C)c3ncc(F)cn3)n2)n[nH]1 | > 8.52
Cc1cc(Nc2cnc(C#N)c(N[C@@H](C)c3ncc(F)cn3)n2)n[nH]1 | > 8.52
Cc1cc(Nc2nc(O[C@H](C)c3ccc(F)cn3)c(C#N)nc2C)[nH]n1 | 6.97
Cc1cc(Nc2nc(N[C@H](C)c3ccc(F)cn3)c(C#N)nc2C)n[nH]1 | 7.12
Cc1cc(Nc2nc(N[C@@H](C)c3ccc(F)cn3)c(C#N)nc2C)n[nH]1 | > 8.52
Cc1cc(Nc2cnc(C#N)c(NC(C)c3ccc(F)cn3)n2)n[nH]1 (stereo unspecified) | > 8.52
Cc1cc(Nc2nc(N[C@H](C)c3ncc(F)cn3)c(C#N)nc2C)[nH]n1 | 7.30
Cc1cc(Nc2cncc(N[C@@H](C)c3ccc(F)cn3)n2)[nH]n1 | > 8.52
C[C@H](Nc1nc(Nc2cc(C3CC3)n[nH]2)cnc1C#N)c1ccc(F)cn1 | > 8.52
COc1cc(Nc2cncc(N[C@@H](C)c3ccc(F)cn3)n2)[nH]n1 | 8.52
CC(C)Oc1cc(Nc2cncc(N[C@@H](C)c3ccc(F)cn3)n2)[nH]n1 | 8.00
Cc1cc(Nc2cnc(C#N)c(N[C@@H](C)c3ccc(F)cn3)n2)n[nH]1 | > 8.52
Cc1cc(Nc2nc(NC(C)c3ccc(F)cn3)c(C#N)nc2C)n[nH]1 (stereo unspecified) | > 8.52
Cc1cc(Nc2nc(O[C@@H](C)c3ccc(F)cn3)c(C#N)nc2C)[nH]n1 | 8.40
Cc1cc(Nc2nc(N[C@@H](C)c3ncc(F)cn3)c(C#N)nc2C)n[nH]1 | > 8.52
